Listing of recorded pIC50 by entry.
target: A*3301 (Homo sapiens, UniProt P04439, A270S/D185E/E176V/E277Q/E87N/F33T/G231S/H175R/I121M/I218V/I322F/K168Q/K210R/L300P/L318F/M331R/P217A/Q86R/Q94H/R138Q/T323A/T345S/T97I/V358M/Y195H); experiment: biochemical; assay type: binding
No end group written: not given here.
The value called pIC50 is obtained by taking minus log10 of the concentration in mol/L.

Here's what some known entries look like.
TIAYIEYRK [Peptide 9017.0119]    6.05
TQQLQDLFK [Peptide 88.0374]    5.70
VTVYDGVPVWR [Peptide 1525.08]    5.24
RTLTLLSVTK [Peptide 1556.13]    5.17
VSIEWRLRR [Peptide 9017.0088]    7.54

May I ask what pIC50 has been recorded for LLLIRFKCSK [Peptide 88.0191] ?
4.76

May I ask what pIC50 has been recorded for VTIYYGVPVWR [Peptide 1525.04] ?
7.29

May I ask what pIC50 has been recorded for VVYRLVWDK [Peptide 1589.38] ?
5.42

May I ask what pIC50 has been recorded for AILGHIVIPR [Peptide 9017.0224] ?
6.99

* * *

molecular target: A*2601 (Homo sapiens, UniProt P04439, A114D/A173T/A270S/D101N/D185E/E277Q/E87N/F33Y/G231S/I121R/I218V/K168Q/L180W/L300P/L318F/P208A/P217A/Q86R/Q94H/R138Q/S129P/T187R/T323A/T345S/V100A/V358M); experiment: biochemical; format: binding
No end group written: not given here.
Listing of recorded pIC50 by entry.
The value called pIC50 is obtained by taking minus log10 of the concentration in mol/L.

YTMAGVGSPY [Peptide 9012.0153]    9.49
GTDCTTIHYNY [Peptide 9012.0200]    5.31
STVPSQKTY [Peptide 9012.0140]    6.38
LTHFLLLKY [Peptide 9012.0134]    6.43
DMDDLVDAEEY [Peptide 9012.0184]    5.25

May I ask what pIC50 has been recorded for LTQENYLEY [Peptide 9012.0133] ?
7.52

May I ask what pIC50 has been recorded for TMDYPLWSQSY [Peptide 9012.0196] ?
6.38

May I ask what pIC50 has been recorded for FTQENYLEY [Peptide 9012.0137] ?
8.10

* * *

Listing of recorded log10 of IC50 by entry.
target: DRB1*0405 (Homo sapiens, UniProt P01903+P01911, A100R/A169T/D86S/F76Y/I96L/K127E/L162R/M171V/N62H/P40V/Q125Y/R42H/S133A/S149N/S66Y/V115G/V209L/W38E); experiment: biochemical; assay type: binding
No end group written: not given here.
# log10 transformed; quantity=IC50; unit=nM

FQVIELQMALETLNA [Peptide 90.0025]    3.40

May I ask what log10 of IC50 has been recorded for CWTYFDNYMRNALDG [Peptide 89.0090] ?
3.69

May I ask what log10 of IC50 has been recorded for AFQVIELQMALETLN [Peptide 90.0024] ?
3.32
